The measurements presented in this section are drawn from the C3SDB collision cross section collection.

// values below are reported collision cross section (N2)
Condition Parameters: [M+Na]+; instrument: DT; stepped-field
Return type: number; implicit unit Å².

CCCCC[C@H](O)/C=C/[C@H]1[C@H](O)CC(=O)[C@@H]1C/C=C\CCCC(=O)O [Prostaglandin E2] | 198.53
OC[C@H]1O[C@@H](O[C@@H]2[C@@H](CO)O[C@](O)(CO)[C@H]2O)[C@H](O)[C@@H](O)[C@H]1O [Lactulose] | 180.1
CN1CC(=O)N=C1N [Creatinine] | 133.41
COc1cc(CC(=O)O)ccc1O [Homovanillic Acid] | 149.57
Nc1ncnc2c1ncn2[C@@H]1O[C@H](COP(=O)(O)O)[C@@H](O)[C@H]1O [Adenosine 5' Monophosphate] | 180.73
O=c1ccn([C@H]2C[C@H](O)[C@@H](CO)O2)c(=O)[nH]1 [Deoxyuridine] | 159.45

// next item, collision cross section (N2) requested
**Query** Give its collision cross section (N2) value. Item: O=C(CO)COP(=O)(O)O [Dihydroxyacetone Phosphate]
**Result** 144.07

* * *

Condition Parameters: [M+Na]+; instrument: DT; stepped-field
Measurement Label: collision cross section (N2) (Å²)
Report the value in Å² with no unit label.

Sample records with collision cross section (N2):
CCCCCCCCCC/C=C\CCCCCCCCCC(=O)O[C@H](COC(=O)CCCCCCCCCCC)COP(=O)(O)OCCN [PE(34:1)] | 281.3
OC[C@H]1O[C@@H]2O[C@H]3[C@H](O)[C@@H](O)[C@@H](O[C@H]4[C@H](O)[C@@H](O)[C@@H](O[C@H]5[C@H](O)[C@@H](O)[C@@H](O[C@H]6[C@H](O)[C@@H](O)[C@@H](O[C@H]7[C@H](O)[C@@H](O)[C@@H](O[C@H]8[C@H](O)[C@@H](O)[C@@H](O[C@H]9[C@H](O)[C@@H](O)[C@@H](O[C@H]1[C@H](O)[C@H]2O)O[C@@H]9CO)O[C@@H]8CO)O[C@@H]7CO)O[C@@H]6CO)O[C@@H]5CO)O[C@@H]4CO)O[C@@H]3CO [Gamma-Cyclodextrin] | 322.1
CCCCC/C=C\C/C=C\CCCCCCCCCC(=O)O[C@H](COC(=O)CCCCCCCCCCCCCCC)COP(=O)(O)OCCN [PE(36:2)] | 285.7

Kindly consider the entry below.
**Query** Which collision cross section (N2) value belongs to CCCCCCCCCCCCC=CC[C@@H](O)[C@H](COP(=O)([O-])OCC[N+](C)(C)C)NC(=O)CCCCCCCCCCCCCCCCCCCCCCCC [SM(43:1)] ?
**Result** 312.5

* * *

Condition Parameters: [M-H]-; instrument: DT; single field, calibrated with Agilent tune mix (Agilent)
Each entry below carries its reported collision cross section (N2).
Numbers only here, please. The scale is Å².

CC(C)(COP(=O)(O)OP(=O)(O)OC[C@H]1O[C@@H](n2cnc3c(N)ncnc32)[C@H](O)[C@@H]1OP(=O)(O)O)[C@@H](O)C(=O)NCCC(=O)NCCS [Coenzyme A] | 241.54
C[C@H](CCC(=O)NCCS(=O)(=O)O)[C@H]1CC[C@H]2[C@@H]3CC[C@@H]4C[C@H](O)CC[C@]4(C)[C@H]3CC[C@]12C [Taurolithocholic acid] | 204.62
N[C@@H](CS(=O)(=O)O)C(=O)O [L-Cysteic acid] | 120.55
OC[C@H]1O[C@H](OC[C@H]2OC(O)[C@H](O)[C@@H](O)[C@@H]2O)[C@H](O)[C@@H](O)[C@@H]1O (stereo partly specified) [Isomaltose] | 171.96
O=c1ccn([C@H]2C[C@H](O)[C@@H](COP(=O)(O)O)O2)c(=O)[nH]1 [Deoxyuridine monophosphate] | 156

**Query** Need collision cross section (N2), item O=c1ccn([C@H]2C[C@H](O)[C@@H](CO)O2)c(=O)[nH]1 [2'-Deoxyuridine]
**Result** 145.91

**Query** GET /values?readout=collision cross section (N2)&item= C[C@]12CC[C@@H]3c4ccc(O)cc4CC[C@H]3[C@@H]1CC[C@@H]2O [Beta-Estradiol]
**Result** 173.34

**Query** Find the recorded collision cross section (N2) belonging to CC(O)(CC(=O)O)CC(=O)O [3-Hydorxy-3-methylglutaric acid] and report it.
**Result** 123.66

**Query** What value of collision cross section (N2) has been recorded for this entry: C[C@H](CCC(=O)NCC(=O)O)[C@H]1CC[C@H]2[C@@H]3[C@H](O)C[C@@H]4C[C@H](O)CC[C@]4(C)[C@H]3C[C@H](O)[C@]12C [Glycocholic acid]
**Result** 200.58

**Query** // query collision cross section (N2) value for entry CCCCCCCCCCCCCCCC(=O)O[C@H](CC(=O)[O-])C[N+](C)(C)C [L-Palmitoylcarnitine]
**Result** 204.49

**Query** What value of collision cross section (N2) has been reported for the following compound? O=C(O)CNC(=O)c1ccccc1O [Salicyluric acid]
**Result** 133.01

**Query** // query collision cross section (N2) value for entry CCCCCC/C=C/CCCCCCCCCC(=O)O [trans-Vaccenic acid]
**Result** 174.95

**Query** Dear colleague, I am looking for the recorded collision cross section (N2) of the following compound: Cc1c[nH]c(=O)[nH]c1=O [Thymine]
**Result** 117.39

**Query** collision cross section (N2) for CC(=O)[C@H]1CC[C@H]2[C@@H]3CC=C4C[C@@H](O)CC[C@]4(C)[C@H]3CC[C@]12C [Pregnenolone] ?
**Result** 182.86

**Query** Item Cc1cn([C@H]2C[C@H](O)[C@@H](CO)O2)c(=O)[nH]c1=O [Thymidine] has what recorded collision cross section (N2)?
**Result** 151.22
